- measurement_target: human NPY Y5 receptor (Homo sapiens, UniProt Q15761)
- Construct: expressed in transfected cells
- experimental_protocol: Affinity for NPY Y5 receptor ([125I] peptide YY binding, CHO cell membranes)
- recorded_conditions: inhibition of specific [125I] peptide YY binding, membranes of CHO cells expressing NPY Y5 receptor
metric_name: IC50 (nM)
The response must be a number in nM with no trailing unit.

For record CC(C)(C)S(=O)(=O)NC1CCC(C(=O)Nc2cccc(S(=O)(=O)N3CCCCC3)c2)CC1 (stereo not shown) [Ia-186] the listed IC50 is 0.93

For record CC(C)(C)S(=O)(=O)NC1CCC(C(=O)Nc2ccc(-n3ncnn3)cc2)CC1 (stereo not shown) [Compound I-84] the listed IC50 is 1.3

For record Cc1cc(N2C[C@@H](C)O[C@@H](C)C2)ccc1NC(=O)C1CCC(NS(=O)(=O)C(C)(C)C)CC1 (stereo partly shown) [Ia-28] the listed IC50 is 5.2

For record CCC(C)NC(=O)c1ccc(NC(=O)C2CCC(NS(=O)(=O)C(C)(C)C)CC2)cc1 (stereo not shown) [Ia-188] the listed IC50 is 0.75

====

IC50 by entry:
- measurement_target: human NPY Y5 receptor (Homo sapiens)
- Construct: expressed in transfected cells
- experimental_protocol: Affinity for NPY Y5 receptor ([125I] peptide YY binding, CHO cell membranes)
- recorded_conditions: inhibition of specific [125I] peptide YY binding, membranes of CHO cells expressing NPY Y5 receptor
- Text: Experiment 1 Affinity for NPY Y5 Receptor cDNA sequence encoding a human NPY Y5 receptor (WO096/16542) was cloned in the expression vector pME18S (Takebe et al. Mol. Cell. Biol. 8, 8957). The obtained expression vector was transfected into a host CHO cells by using a Lipofect AMINE reagent (Trademark, Gibco BRL Co., Ltd.) according to an instruction protocol to obtain the cells that stably express NPY Y5 receptor. […]
The response must be a number in nM with no trailing unit.

Examples with answers:
For record CC(C)(C)S(=O)(=O)NC1CCC(C(=O)Nc2nnc(-c3ccc(F)cc3)s2)CC1 (stereo not drawn) [Compound I-213] the listed IC50 is 0.44

For record CC(C)NC(=O)c1cccc(NC(=O)C2CCC(NS(=O)(=O)C(C)(C)C)CC2)c1 (stereo not drawn) [Compound I-205] the listed IC50 is 2.9

Continuing:
For record CCOC(=O)C1CCN(c2ccc(NC(=O)C3CCC(NS(=O)(=O)C(C)(C)C)CC3)cc2)CC1 (stereo not drawn) [Compound I-57] the listed IC50 is 4.8

For record CCCCc1ccc(NC(=S)CCCCNS(=O)(=O)CC(C)C)cc1 [Compound I-114] the listed IC50 is 7

For record CCCCOc1ccc(NC(=O)C2CCC(NS(=O)(=O)C(C)(C)C)CC2)c(O)c1 (stereo not drawn) [Compound I-165] the listed IC50 is 0.44

For record CC(C)(C)S(=O)(=O)NC1CCC(C(=O)Nc2ccc(N3CC=CCC3)cc2)CC1 (stereo not drawn) [Compound I-59] the listed IC50 is 0.8

For record Cc1cc(C(=O)NC(C)C)ccc1NC(=O)N1CCC(NS(=O)(=O)C(C)(C)C)CC1 [Ia-243] the listed IC50 is 1.3

For record CCC(C)COC(=O)/C=C/c1ccc(NC(=O)C2CCC(NS(=O)(=O)C(C)(C)C)CC2)cc1 (stereo not drawn) [Compound I-133] the listed IC50 is 0.9

For record CC(C)(C)S(=O)(=O)NCCCCC(=O)Nc1ccc(OC2CCOCC2)cc1 [Ia-257] the listed IC50 is 8.6

====

- measurement_target: human NPY Y5 receptor (Homo sapiens, UniProt Q15761)
- Construct: expressed in transfected cells
- experimental_protocol: Affinity for NPY Y5 receptor ([125I] peptide YY binding, CHO cell membranes)
- recorded_conditions: inhibition of specific [125I] peptide YY binding, membranes of CHO cells expressing NPY Y5 receptor
pIC50 by entry:
// scale note: pIC50 = -log10(conc_M); give the bare number

For record CC(C)(C)S(=O)(=O)NC1CCC(C(=O)Nc2cccc(NC(=O)C3CCCCC3)c2)CC1 (centres unmarked) [Ia-189] the listed pIC50 is 8.46

For record CC(C)(C)S(=O)(=O)NC1CCC(C(=O)Nc2cccc3c2CCCC3)CC1 (centres unmarked) [Ia-111] the listed pIC50 is 8.29

For record CC(O)(c1ccccc1)c1ccc(NC(=O)C2CCC(NS(=O)(=O)C(C)(C)C)CC2)cc1 (centres unmarked) [Ia-57] the listed pIC50 is 9.03

For record CC(C)(C)S(=O)(=O)NC1CCC(C(=O)Nc2cnc(-c3ccccc3)cn2)CC1 (centres unmarked) [Ia-59] the listed pIC50 is 9.15

Continuing:
For record CCCCc1ccc(C(=O)Nc2ccc(NS(=O)(=O)C(C)C)cc2)cc1 [Compound I-2] the listed pIC50 is 8.12

For record CSc1ccc(NC(=O)C2CCC(NS(=O)(=O)C(C)(C)C)CC2)cc1 (centres unmarked) [Compound I-128] the listed pIC50 is 8.89

For record CCCCc1ccc(NC(=O)C23CCC(NS(=O)(=O)C(C)(C)C)(CC2)CC3)cc1 [Compound I-123] the listed pIC50 is 8.74

For record CC(C)(C)S(=O)(=O)NC1CCC(C(=O)Nc2cccnc2Oc2ccc(F)cc2F)CC1 (centres unmarked) [Compound I-144] the listed pIC50 is 8.47

For record CC(C)(C)S(=O)(=O)NC1CCC(C(=O)Nc2ccc3c(c2)CCC3)CC1 (centres unmarked) [Compound I-204] the listed pIC50 is 9.00

For record C[C@@H]1CN(c2ccc(NC(=O)C3CCC(NS(=O)(=O)C(C)(C)C)CC3)c(F)c2)C[C@H](C)O1 (some centres unmarked) [Ia-26] the listed pIC50 is 8.72

For record CCCCOc1cccc(CONC(=O)C2CCC(NS(=O)(=O)C(C)(C)C)CC2)c1 (centres unmarked) [Compound I-191] the listed pIC50 is 8.96

====

- measurement_target: human NPY Y5 receptor (Homo sapiens, UniProt Q15761)
- Construct: expressed in transfected cells
- experimental_protocol: cAMP production inhibitory activity in CHO cells
- Format: cell-based
- recorded_conditions: against 50 nM NPY inhibition of forskolin stimulated cAMP, CHO cells expressing human NPY Y5 receptor
- Procedure: Experiment 2 cAMP production inhibitory activity in CHO cells After CHO cells expressing human NPY Y5 receptor were incubated in the presence of 2.5 mM isobutylmethylxanthine (SIGMA) at 37° C. for 20 min., the compound of the present invention was added and incubated for 5 min. […] After the reaction was terminated by adding 1N HCl, the amount of cAMP in the supernatant was measured with EIA kit (Amersham LIFE SCIENCE).
metric_name: pIC50
// scale note: pIC50 = -log10(conc_M); give the bare number

Examples with answers:
For record COc1ccc(NC(=O)C2CCC(NS(=O)(=O)C(C)(C)C)CC2)cc1Cl (stereo not drawn) [Ia-39] the listed pIC50 is 8.46

For record CC(=O)Nc1cccc(NC(=O)C2CCC(NS(=O)(=O)C(C)(C)C)CC2)c1 (stereo not drawn) [Compound I-67] the listed pIC50 is 7.77

For record CC(C)(C)S(=O)(=O)NC1CCC(C(=O)Nc2cnc3ccccc3c2)CC1 (stereo not drawn) [Compound I-139] the listed pIC50 is 8.12

For record CC(C)(C)S(=O)(=O)NC1CCC(C(=O)Nc2cccc(NC(=O)C3CCCCC3)c2)CC1 (stereo not drawn) [Ia-189] the listed pIC50 is 7.02

For record CC(C)(C)S(=O)(=O)NC1CCC(C(=O)Nc2ccc(F)c(C(F)(F)F)c2)CC1 (stereo not drawn) [Ia-160] the listed pIC50 is 6.85

For record CC(C)(C)S(=O)(=O)NC1CCC(C(=O)Nc2nc(-c3cccc4ccccc34)cs2)CC1 (stereo not drawn) [Compound I-142] the listed pIC50 is 7.55

Continuing:
For record CCCCc1ccc(NC(=O)N2CCC(NS(=O)(=O)C(C)(C)C)CC2)cc1 [Compound I-120] the listed pIC50 is 8.32

For record CC(C)S(=O)(=O)NC1CCC(C(=O)Nc2ccc(N3CCC(O)(c4ccc(Cl)cc4)CC3)cc2)CC1 (stereo not drawn) [Ia-84] the listed pIC50 is 7.89

====

- measurement_target: human NPY Y5 receptor (Homo sapiens, UniProt Q15761)
- Construct: expressed in transfected cells
- Sequence (Q15761 1-445): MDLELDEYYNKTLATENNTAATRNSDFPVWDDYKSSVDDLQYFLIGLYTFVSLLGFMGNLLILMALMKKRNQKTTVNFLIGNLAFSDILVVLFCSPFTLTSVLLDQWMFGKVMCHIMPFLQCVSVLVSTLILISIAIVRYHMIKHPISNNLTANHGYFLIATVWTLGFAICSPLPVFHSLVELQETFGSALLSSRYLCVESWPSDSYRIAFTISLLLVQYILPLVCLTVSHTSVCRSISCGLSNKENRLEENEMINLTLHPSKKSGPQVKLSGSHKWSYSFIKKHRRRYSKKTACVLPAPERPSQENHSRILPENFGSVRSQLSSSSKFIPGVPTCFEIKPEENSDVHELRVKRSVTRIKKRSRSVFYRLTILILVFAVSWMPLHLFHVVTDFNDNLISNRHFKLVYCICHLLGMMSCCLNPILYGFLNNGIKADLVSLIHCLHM
- experimental_protocol: cAMP production inhibitory activity in CHO cells
- Format: cell-based
- recorded_conditions: against 50 nM NPY inhibition of forskolin stimulated cAMP, CHO cells expressing human NPY Y5 receptor
pIC50: −log10 of the molar value.
We use 8 as the dividing line for pIC50: on or above the line is Yes, below is No.

Use these answered entries as a reference point.
Ask | Is pIC50 at least 8? Consider CC(C)(C)S(=O)(=O)NC1CCC(C(=O)Nc2ccc(N3CCc4ccccc4C3)cc2)CC1 (centres unmarked)
Reply | No

Ask | Is pIC50 at least 8? Consider CC(C)S(=O)(=O)NC1CCC(C(=O)Nc2ccc(OCC3CC3)cc2)CC1 (centres unmarked)
Reply | Yes

Ask | Is pIC50 at least 8? Consider `CCCCc1ccc(C(=O)NCCCCNS(=O)(=O)C(C)(C)C)cc1`
Reply | No

Continuing:
Ask | Is pIC50 at least 8? Consider `CC(C)(C)S(=O)(=O)NC1CCN(C(=O)Nc2ccc(C3CCCCC3)cc2)CC1`
Reply | Yes

Ask | Is pIC50 at least 8? Consider CC(C)(C)S(=O)(=O)NC1CCC(C(=O)Nc2ccc(-n3ncnn3)cc2)CC1 (centres unmarked)
Reply | No

Ask | Is pIC50 at least 8? Consider COc1ccc(NC(=O)C2CCC(NS(=O)(=O)C(C)(C)C)CC2)cc1OC (centres unmarked)
Reply | No

Ask | Is pIC50 at least 8? Consider CCCCc1ccc(NC(=O)c2ccc(N[S+]([O-])C(C)(C)Cl)cc2)cc1 (centres unmarked)
Reply | No

Ask | Is pIC50 at least 8? Consider CC(C)S(=O)(=O)NC1CCC(C(=O)Nc2ccc(N3C[C@@H](C)O[C@@H](C)C3)c(F)c2)CC1 (some centres unmarked)
Reply | No

Ask | Is pIC50 at least 8? Consider `CC(C)(C)S(=O)(=O)Nc1ccc(C(=O)Nc2ccc3c(c2)CCC3)cc1`
Reply | No

Ask | Is pIC50 at least 8? Consider CN1C(=O)c2ccc(NC(=O)C3CCC(NS(=O)(=O)C(C)(C)C)CC3)cc2C1=O (centres unmarked)
Reply | No

Ask | Is pIC50 at least 8? Consider CC(C)(C)S(=O)(=O)NC1CCC(C(=O)Nc2ccc(NS(=O)(=O)c3ccccc3)cc2)CC1 (centres unmarked)
Reply | No

Ask | Is pIC50 at least 8? Consider `CC(C)(C)S(=O)(=O)NCCCCC(=O)Nc1ccc2c(c1)C(=O)N(c1ccccc1)C2=O`
Reply | Yes

Ask | Is pIC50 at least 8? Consider COc1ccc(NC(=O)C2CCC(NS(=O)(=O)C(C)(C)C)CC2)cc1F (centres unmarked)
Reply | No

Ask | Is pIC50 at least 8? Consider CC(C)(C)S(=O)(=O)NC1CCC(C(=O)Nc2ccc(-c3cnco3)cc2)CC1 (centres unmarked)
Reply | No
